test.target: BACE1 (β-secretase) (Homo sapiens, UniProt P56817)
Construct: host or cells: Baculovirus expression system
Sequence (P56817 46-501): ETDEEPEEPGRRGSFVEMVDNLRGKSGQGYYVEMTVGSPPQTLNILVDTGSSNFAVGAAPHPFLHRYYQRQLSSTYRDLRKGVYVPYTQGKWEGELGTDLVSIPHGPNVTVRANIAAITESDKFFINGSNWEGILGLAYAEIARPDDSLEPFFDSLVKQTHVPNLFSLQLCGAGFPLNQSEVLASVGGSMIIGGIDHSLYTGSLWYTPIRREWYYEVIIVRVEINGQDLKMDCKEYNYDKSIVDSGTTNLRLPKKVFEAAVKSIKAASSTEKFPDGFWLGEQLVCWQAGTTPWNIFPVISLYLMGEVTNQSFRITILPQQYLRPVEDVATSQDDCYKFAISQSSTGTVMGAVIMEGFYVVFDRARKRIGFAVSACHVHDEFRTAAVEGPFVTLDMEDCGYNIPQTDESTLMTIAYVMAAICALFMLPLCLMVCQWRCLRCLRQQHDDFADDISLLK
method: biochemical
Square brackets hold non-standard residues; d marks the D form. Peptide text beside a SMILES is read from it. Sta = CC(C)C[C@H](N)[C@@H](O)CC(=O)O
property.name: IC50

Would you please look over these solved cases?
[[record]]
compound = "CC[C@H](C)[C@H](NC(=O)[C@H](CCC(=O)O)NC(=O)[C@H](CCC(=O)O)NC(=O)[C@@H](NC(=O)[C@@H](N)CCCCN)[C@@H](C)O)C(=O)N[C@@H](CO)C(=O)N[C@@H](CCC(=O)O)C(=O)N[C@H](C(=O)N[C@@H](CC(N)=O)C(=O)N[C@@H](CC(C)C)[C@@H](O)CC(=O)N[C@H](C(=O)N[C@@H](C)C(=O)N[C@@H](CCC(=O)O)C(=O)N[C@@H](Cc1ccccc1)C(=O)O)C(C)C)C(C)C [peptide derivative of statin] (H-KTEEISEVN[Sta]VAEF-OH)"
value = "0.018 µM"

[[record]]
compound = "CCN(C)C(=O)Oc1cccc([C@H](C)N(C)C)c1"
value = "> 3 µM"

[[record]]
compound = "COc1ccc2c3c1O[C@H]1C[C@@H](O)C=C[C@@]31CCN(C)C2"
value = "> 5 µM"


Consider the record given below.
State its IC50 for this compound: Nc1c2c(nc3ccccc13)CCCC2 [Tacrine, reference compound]
> 4 µM

###

test.target: butyrylcholinesterase (BChE) from human serum (Homo sapiens)
method: biochemical
Assay type: biochemical
property.name: pIC50
# pIC50 = -log10(concentration in molar units)

Input CC(c1cccc(OCCCNC(=O)CCCCC2CCSS2)c1)N(C)C (stereo not shown) , output reported pIC50.
4.08

###

The following molecules are listed with their measured pIC50 values.
test.target: butyrylcholinesterase (BChE) from human serum (Homo sapiens, UniProt P06276)
Sequence (P06276 29-602): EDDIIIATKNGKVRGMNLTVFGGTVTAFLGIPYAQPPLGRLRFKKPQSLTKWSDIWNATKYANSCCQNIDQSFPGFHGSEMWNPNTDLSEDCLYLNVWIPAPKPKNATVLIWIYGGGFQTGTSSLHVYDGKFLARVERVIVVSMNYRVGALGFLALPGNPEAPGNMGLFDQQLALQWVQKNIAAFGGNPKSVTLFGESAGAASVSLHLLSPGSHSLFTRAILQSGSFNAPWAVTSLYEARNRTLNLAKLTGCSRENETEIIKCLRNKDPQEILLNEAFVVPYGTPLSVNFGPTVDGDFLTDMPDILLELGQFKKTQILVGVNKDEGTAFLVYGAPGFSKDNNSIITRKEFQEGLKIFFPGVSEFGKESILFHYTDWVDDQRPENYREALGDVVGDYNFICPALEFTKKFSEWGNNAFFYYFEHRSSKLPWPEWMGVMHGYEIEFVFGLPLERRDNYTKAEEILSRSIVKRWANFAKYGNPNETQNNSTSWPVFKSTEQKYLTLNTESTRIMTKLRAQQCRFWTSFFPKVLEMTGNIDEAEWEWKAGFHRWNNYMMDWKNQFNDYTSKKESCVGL
method: biochemical
Format: biochemical
test.parameters: BChE from human serum; mean of two independent measurements, each in duplicate; read-out: IC50 BChE
In plain terms, pIC50 is the concentration in mol/L turned into minus its base-10 logarithm.

In the examples that follow, each entry is paired with its recorded pIC50.
[[record]]
molecule = "O=C(CCCCC1CCSS1)NCCCNc1c2c(nc3cc(Cl)ccc13)CCCC2 (racemic) [Compound 7]"
value = 7.97

[[record]]
molecule = "O=C(CCCCC1CCSS1)NCCCCCCNc1c2c(nc3ccccc13)CCCC2 (centres unmarked) [Compound 5]"
value = 8.49

[[record]]
molecule = "O=C(CCCCC1CCSS1)NCCCCCCCNc1c2c(nc3ccccc13)CCCC2 (centres unmarked) [Compound 6]"
value = 8.07

[[record]]
molecule = "O=C(CCCCC1CCSS1)NCCNc1c2c(nc3ccccc13)CCCC2 (centres unmarked) [Compound 1]"
value = 7.32


Next:
Provide measured pIC50 value, entry: O=C(CCCCC1CCSS1)NCCCNc1c2c(nc3ccccc13)CCCC2 (centres unmarked) [Compound 2]
7.92

###

// reported pIC50 for each item listed
test.target: human recombinant acetylcholinesterase (AChE or HuAChE) (Homo sapiens, UniProt P22303)
Sequence (P22303 32-614): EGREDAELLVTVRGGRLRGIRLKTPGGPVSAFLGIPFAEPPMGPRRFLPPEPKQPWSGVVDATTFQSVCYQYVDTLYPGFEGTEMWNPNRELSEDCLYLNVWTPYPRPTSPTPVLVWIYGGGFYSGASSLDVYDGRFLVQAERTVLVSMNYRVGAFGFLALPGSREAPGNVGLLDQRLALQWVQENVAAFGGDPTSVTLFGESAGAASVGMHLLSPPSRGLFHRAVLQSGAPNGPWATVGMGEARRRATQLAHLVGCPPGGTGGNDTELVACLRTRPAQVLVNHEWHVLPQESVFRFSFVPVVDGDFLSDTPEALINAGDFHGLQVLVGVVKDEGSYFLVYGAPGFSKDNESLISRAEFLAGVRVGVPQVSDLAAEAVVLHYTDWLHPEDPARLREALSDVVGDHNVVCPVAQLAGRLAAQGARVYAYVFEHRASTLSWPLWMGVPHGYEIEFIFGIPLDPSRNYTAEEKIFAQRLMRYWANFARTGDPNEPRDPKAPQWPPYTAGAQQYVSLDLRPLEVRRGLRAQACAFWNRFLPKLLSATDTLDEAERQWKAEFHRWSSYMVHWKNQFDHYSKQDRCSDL
method: biochemical
Assay type: biochemical
test.parameters: human recombinant AChE; mean of two independent measurements, each in duplicate; read-out: IC50 AChE
Field pIC50 (float): negative decimal logarithm of the concentration in molar.

Some molecules with recorded pIC50:
[[record]]
molecule = "CC(c1cccc(OCCCNC(=O)CCCCC2CCSS2)c1)N(C)C (stereo not drawn)"
value = 4.60

[[record]]
molecule = "O=C(CCCCC1CCSS1)NCCNc1c2c(nc3ccccc13)CCCC2 (stereo not drawn)"
value = 7.01


Report value: pIC50, system: human recombinant acetylcholinesterase (AChE or HuAChE) (Homo sapiens, UniProt P22303), molecule: O=C(CCCCC1CCSS1)NCCCCNc1c2c(nc3ccccc13)CCCC2 (stereo not drawn)
7.45

Provide pIC50, recorded with human recombinant acetylcholinesterase (AChE or HuAChE) (Homo sapiens, UniProt P22303), of CCN(CCCCCCNC(=O)CCCCC1CCSS1)Cc1ccccc1OC (stereo not drawn)
6.59

Give pIC50 for this entry on human recombinant acetylcholinesterase (AChE or HuAChE) (Homo sapiens, UniProt P22303): O=C(CCCCC1CCSS1)NCCCNc1c2c(nc3ccccc13)CCCC2 (stereo not drawn)
8.16

Write down measured pIC50 (human recombinant acetylcholinesterase (AChE or HuAChE) (Homo sapiens, UniProt P22303)) for this molecule. O=C(CCCCC1CCSS1)NCCCCCNc1c2c(nc3ccccc13)CCCC2 (stereo not drawn)
7.42
